Each entry below carries its reported folding stability dG unfold.
- experiment: folding stability dG unfold from chymotrypsin proteolysis; higher = more stable

{"sequence_data": "SAGGSAPEPIRFYFWWPGKIIEITIPPDEIEKVEIKPDNGDIDITVKLPGEEVEISITPGAIHVQTSAGGSA [r15_598_TrROS]", "folding stability dG unfold, kcal/mol": 2.57}
{"sequence_data": "SAGGSAGGSASSIVLTKTPGSYVLTEVELSSSTYPPSPPDYGSVVTVTPLEVVEREPGVPLPSAGGSAGGSA [r18_255_JUSTAS]", "folding stability dG unfold, kcal/mol": 0.263}
{"sequence_data": "SAGGGSISPAIVAALRAAGASLEEIVAYLNEQGYPIASVLGEEEHHHHHHITLLLPETGETVTVELHSAGGS [r8_179_JUSTAS]", "folding stability dG unfold, kcal/mol": 3.03}
{"sequence_data": "SAGGSAMTVTLIVGDKPITIPLTASLSDIKAALEEHPDVPVYIILPNGKRIEMKVSDLIKMMEKAGSAGGSA [r15_36_TrMRF]", "folding stability dG unfold, kcal/mol": 3.35}
{"sequence_data": "SAGGSAGGSAGPIIPPNFEVVDVFETETSYYILVKNPETGRYYVARYDPLTGKIEVFEVSSAGGSAGGSAGG [r11_896_TrMRF]", "folding stability dG unfold, kcal/mol": 4.75}
{"sequence_data": "SAGGSAGGSAGGWIFIIEIDPDNGEIKINWPNGNSIKIPPEDLDNMPIEIKPIPPPPNDKSAGGSAGGSAGG [r7_99_TrROS]", "folding stability dG unfold, kcal/mol": 1.88}
{"sequence_data": "SAGGKKIEIKEGDTVKLKNATITLNGKTFKIKDAEAKVVKVDKKKKKVIIEITLKNGKKETFVFDIKSAGGS [r8_215_TrROS_Hall]", "folding stability dG unfold, kcal/mol": 3.33}
{"sequence_data": "SAGGMTPEEKEEIAKKFAEELLKKLKEGDPNVKVETEVDPEKGVVKIKVINLNTKKPKTIEIPFSELASAGG [r13_354_TrMRF]", "folding stability dG unfold, kcal/mol": 1.83}
{"sequence_data": "SAGGSAGGSAGGNEEDIEKAVKEAKEKGENAEVKVTLPNGKEETVYIEVNVKEPSEKLKSAGGSAGGSAGGS [r10_573_JUSTAS]", "folding stability dG unfold, kcal/mol": -1.04}
{"sequence_data": "SAMVRIERLPDGSLLVVVESEGKEEGLEFIERFIEEIKSLGIDAEIELLSIEEIPEDPKRYRATFLIKASAG [r14_119_TrMRF]", "folding stability dG unfold, kcal/mol": 6.12}
{"sequence_data": "SAGPVVVDPNGKLLPLKVKAVFVIDPELLEEKAKESDNSLEKAIRDLVKELEAELKAKGYDVEVEGIGSAGG [r19_305_TrMRF]", "folding stability dG unfold, kcal/mol": 1.97}
{"sequence_data": "SAGGSAGGSAGPRYRLRIELRLERNEDGSLSLSAKIEIERIEPPPPPPRVVLYNGKLYLLSAGGSAGGSAGG [r17_418_TrROS_Hall]", "folding stability dG unfold, kcal/mol": 4.35}
{"sequence_data": "SAGGSAGGKEVKIEIYDSDDGILLVEVPDLDDAVEAVEKLGVELELVPYDPEKGRLLLRLRIPGSAGGSAGG [r6_510_TrMRF]", "folding stability dG unfold, kcal/mol": 0.8}
{"sequence_data": "SAGGGITITLPDGSVIEIEPVSTFTNEDGQPVTKIKATLTDPVTGTSVEADIYLFPDGGVKIDLKPGSAGGS [r16_651_TrMRF]", "folding stability dG unfold, kcal/mol": 2.35}
{"sequence_data": "SAGGSAGGSAGGKKIKILVKIKDLKKLKGLKPGDLALIEIEVEVKPEKKTEKKYTYKKKSAGGSAGGSAGGS [r10_1233_TrROS_Hall]", "folding stability dG unfold, kcal/mol": 0.908}
{"sequence_data": "SPLVLNPEGRTLTITLTVTVDPDVDRQVVPVLVVDEGAPRTFTFEVPKGLAGPVTFTLEIDLPPGAYVEVSA [r9_973_TrMRF]", "folding stability dG unfold, kcal/mol": 2.29}
{"sequence_data": "SAEELARRLRELGLEVEIVRIERERRPDGTIRIEVRLDGELVAELEVRLPPPPPPVEVVRDADGRERRVRSA [r9_442_TrROS_Hall]", "folding stability dG unfold, kcal/mol": 1.82}
{"sequence_data": "SAGGGSAWKVTAENLPADGYVKFPDGTTVPPGTELTVPLSAGYTDIRALDPEGNVVSVELVPLPEPKLSAGG [r13_441_JUSTAS]", "folding stability dG unfold, kcal/mol": -0.274}
{"sequence_data": "SAGGGAAEEAARALIDEAKAALGLSEISEVVLTREGDGVTMTVRFPGKGLVITIDLAAGVVTAVEDVSAGGS [r16_171_JUSTAS]", "folding stability dG unfold, kcal/mol": 2.02}
{"sequence_data": "SAGMVATLYDPNLPPVSVGITETVTVPHPEGFTVTVTLSSDGTATVTPSDGSSTTLPDASEVRVTATPASAG [r5_869_JUSTAS]", "folding stability dG unfold, kcal/mol": 0.921}
{"sequence_data": "SVVLDVPYENRPDLLATIRALVAEKAPPVVVFVEAPEAERARLRRELEALGFTVEPTPVPNRYRITFRPASA [r9_600_TrMRF]", "folding stability dG unfold, kcal/mol": 3.07}
{"sequence_data": "KTITIVIKNEDGELYVIKIKLKNGEEKEIVFKSLEELKNAIAKELGLSKEKIEIVEIKPLSPEELKELEKKS [r1_119_TrROS_Hall]", "folding stability dG unfold, kcal/mol": 3.96}
{"sequence_data": "SAGGSAGGSPLPYLTEDGEVQVVVRIDNSTGTTTVTLTGPDGKLLKTFSVSTDGPAFVVVRAGSAGGSAGGS [r12_960_TrMRF]", "folding stability dG unfold, kcal/mol": 1.92}
{"sequence_data": "SAGGSAGGMTIPAEKIKGKPIKVLVDRGNAIFPLKEAKVKTKPDGRVELYVPKELGEDTKIIAGSAGGSAGG [r6_628_TrMRF]", "folding stability dG unfold, kcal/mol": -0.573}
{"sequence_data": "QIPPGAKVEFGNKEIEVPPGKELMIFNGHIMTQDDMEDMMKNMPDGMEMYRYKVEDNKGKIDKVRRMRMKPS [r1_304_TrROS]", "folding stability dG unfold, kcal/mol": -0.102}
{"sequence_data": "SAGGSAGGSAGGSMLVRFPDKDVLSDGSEAEAERLAEELAAAGRPVELEFISPEEAAARSAGGSAGGSAGGS [r4_131_JUSTAS]", "folding stability dG unfold, kcal/mol": -0.83}
{"sequence_data": "SAGGSAGGSAGMVINVTVTLKNSTGTITITLPVPPDLLDEVLKELKEKPDYEVVSVDTSPSAGGSAGGSAGG [r11_692_JUSTAS]", "folding stability dG unfold, kcal/mol": 2.79}

###

- experiment: folding stability dG unfold (combined trypsin and chymotrypsin); higher = more stable
Kind request: treat 2 kcal/mol as inclusive, so folding stability dG unfold at 2 kcal/mol or higher is fulfilled, anything lower is not fulfilled.

{"sequence_data": "SAGMTIILVGPNAKEAVEKVAEELRKRDVGPPVTVLVLEPGGKPVLRARVERRPPDPDRFVVTVEPVESAGG [r19_85_TrMRF]", "group": "not fulfilled"}
{"sequence_data": "SAGGSAGGSAKLVKITFSNGEELVLPADKFSIEAIKSLPVPAKVEVFDVPKSDTNLEDLLKSAGGSAGGSAG [r3_69_TrMRF]", "group": "not fulfilled"}
{"sequence_data": "SMPLPFEATVTVPVRDEETGETYTVTVKVEAVNPAVPRPLPDGSIEYEPIPLETVLEIVEKAAEELAKALSA [r9_698_TrMRF]", "group": "not fulfilled"}
{"sequence_data": "SAGGSPLVLTSEVEKKFENSPDKTVEKYKIKVTVYDPKTGKKLKEIELEKTVEKGGNEKIEEPIILSAGGSA [r2_271_JUSTAS]", "group": "not fulfilled"}
{"sequence_data": "SAGGSAGGSNLPAGQEIWFPIEIRIEMEMPVRDNGEPIWRMRMTMEHTIMLSIKVKPASPEDASAGGSAGGS [r20_14_TrROS]", "group": "fulfilled"}
{"sequence_data": "SAGGNIEIEIPIPKEDLKDNDFEEAKEYVREYVRMIAREQGLPPGFPIKDIDVQPHPNYYMVKIEIPSAGGS [r16_368_TrROS]", "group": "not fulfilled"}
{"sequence_data": "SAGGMLILIKVKNKKYEIEINGKKIEVEEKDGYLIIKVSPEALEALKKIPNLENIEEIKIFPEEELKSAGGS [r8_493_TrROS_Hall]", "group": "fulfilled"}

###

- experiment: folding stability dG unfold from chymotrypsin proteolysis; higher = more stable
Note to self: values exactly at 2 kcal/mol are t. So folding stability dG unfold at or above 2 kcal/mol is t, below is f.

{"sequence_data": "SAGGSAGGSSSYSVPDSSSVTLETTVTITFPSSSVGGSPASSGPVAFTVPVKVTVSVTNPGVASAGGSAGGS [r12_668_JUSTAS]", "group": "f"}
{"sequence_data": "SAGGMPVTVTLDLSDLTPEEIERLLTEAVEAHPDPAAVTVRVKTDDPALEAAVRAAAEALPAVAVTLESAGG [r13_718_JUSTAS]", "group": "f"}
{"sequence_data": "SAGGSAGGMVFENLSEEEAKIIAKNIAENFKKKYPNVKIKVEAEVYKLPNPKVIVVIKLEIEEESAGGSAGG [r6_787_TrMRF]", "group": "t"}
{"sequence_data": "SAGGKYEYDPDNGYYRDEDGKMYYPMPPQIPPIEIPIPINLPNGQKLNIPVEFRTIEDALDALKKFFSAGGS [r8_440_TrROS]", "group": "f"}
{"sequence_data": "SMDLRLEVVSVEIEPEGRTLRIRVRVRLTALDPDDPDLPVPVLEVEVEIPIPLPEPLPLPVPNDPRALAASA [r9_357_TrMRF]", "group": "t"}
{"sequence_data": "PFDIRINVEYERDPDNGKEYIEVSIMVWDGNPEQARDIAKEILEEHFGWKIKDVKVERFPDMYMITFKIRLS [r1_337_TrROS]", "group": "t"}
{"sequence_data": "SAGGSAGGSVTAVPIEELIPLPTPRTLKVTGTVYVLPGGEVVTERTLTEPSPGTVTVETKTIPLSAGGSAGG [r6_727_JUSTAS]", "group": "f"}
{"sequence_data": "SIKELAKELPGFQVSVEPDDPGQVKITIMVPDDPQQQKRFQNKIIELANDIQGEHGMPVTIEIQPVPPGDSA [r9_1099_TrROS]", "group": "f"}
{"sequence_data": "SPGVTVEISTSTLPNGTRVTTLTTTTFDPQTGTTSTTTTVTVSPAPSSASPLRRELVTRPDGTLVPAALLSA [r9_898_JUSTAS]", "group": "f"}
{"sequence_data": "SAGGSAGGEKTTVLVRVELYLEDTEVVELPDFVFTDLTEEQVLEEVRKLGLPDNVKVEIIPLPASAGGSAGG [r6_88_TrMRF]", "group": "t"}
{"sequence_data": "SAGGSADYVFVRIEVRDPKNKQPMSIMIPVPPDMTPDEAIEEAEMIANTFKEKGLEITVEVEPMPPSAGGSA [r15_268_TrROS]", "group": "f"}
{"sequence_data": "SAGGSAGGSKGPMITITLFILVRPDDGKYYATVIEMYIYPNGGIDIEMEMIPADDIPPGDIVISAGGSAGGS [r12_38_TrROS]", "group": "t"}
{"sequence_data": "SAGGSAGGSNKLVKELAKDPNIKSIFVDTKNKKVYILTDNYLIVIDKNGKIEKIEPISPEKLKSAGGSAGGS [r12_895_TrMRF]", "group": "f"}
{"sequence_data": "SAGMKIKVEVKETGETYEIEISEEELKKKLKEKFPEVKEITVVVEDPEDMSEEELREKALKAAEELLKSAGG [r19_298_TrROS_Hall]", "group": "t"}
{"sequence_data": "SAGGSAGGSAGGAVGPDVGLPDAPVRFRNPSDDKVFTAYVPAGANFADLAKKYGVEIEPSAGGSAGGSAGGS [r10_202_TrMRF]", "group": "f"}
{"sequence_data": "SAGGKTIPIWFRVPPGMTPEEAADELADEIANELQQQNGKEIEIKIDDVEPNPNGWNIVRIKIEVDPSAGGS [r8_156_TrROS]", "group": "f"}
{"sequence_data": "SKPDAPKIVELLRELFPDLEITSVSYDPETGTYTVTFPDGVVAEVHVDPNGNVHIVLRTPTSERTFTLPVSA [r9_304_TrMRF]", "group": "t"}
{"sequence_data": "SAGGSAGGSAGKPLKVKKFEVELLVRDPETNRWYRIRAEVYRVEGLPDLFIIKLEIEELPSAGGSAGGSAGG [r11_1029_TrROS_Hall]", "group": "t"}
{"sequence_data": "SAGSIEIYIIYPPEDPDQPPTEEEIRSIARSLARQLGLPPKDFPIDVEWRRIDPEDGIYVYEITIEFPSAGG [r19_244_TrROS]", "group": "t"}
{"sequence_data": "SAGGSAGGGMSLEAPIGEIEKPEGTDTVVITVYENGKWHTIPLPNFKNIKIEKDPNSDVVTILLSAGGSAGG [r6_806_JUSTAS]", "group": "f"}
{"sequence_data": "SAGGSAGGSKLKIPIIRKFKPDEPLPTAEDVKAILEELGLDIKEVKVTYFPEYGYAIAEVEVSSAGGSAGGS [r12_1052_TrMRF]", "group": "f"}
{"sequence_data": "SAGMPVLVSAPIPLARGPDGVARIDPALVRALAEAAGFTGRVESVEVRPLPDSYLVAVRLPDSVLLGESAGG [r19_398_TrMRF]", "group": "f"}
{"sequence_data": "SAGMVIKVKVKNKDGEELELVIEIPEEELPEELTEEELKELAKKLAEELAKEGKVEVVEVEIVEPEELSAGG [r19_27_TrROS_Hall]", "group": "f"}
{"sequence_data": "SAGSKTITLEFNFEELKVKVTVTYDPEGEPTVTVTTTIYAKGGEKLETKTTTVTASPDDPVVKAFLESSSAG [r5_964_JUSTAS]", "group": "t"}
{"sequence_data": "SAGGSAGGSAMVVRGEDLTPEALLELLEENPEEVTLETKDHIATVKFNPETGELEITSVDDISAGGSAGGSA [r18_75_TrMRF]", "group": "f"}
{"sequence_data": "SAGGSAGGSATTTTAPDGSPVTVYPETGVARVYDPATGLWTRLTTRPDGVVEETPLPPGAPLESAGGSAGGS [r12_997_JUSTAS]", "group": "f"}
{"sequence_data": "SAGGMSKEELAKKLAKELAEKLGIKEIKEIKIEKKKDKVKITIVFKENKKIIEIELKDGKIVKIKEKSAGGS [r16_171_TrROS_Hall]", "group": "t"}
